# Test system: S. pneumoniae strain Taiwan-19F (19F)
# assay procedure: Determination of relative minimal inhibitory concentration (MIC)
# Type: cell-based, Streptococcus pneumoniae
# measurement parameters: Streptococcus pneumoniae, 16 h, read-out: 1x MIC for 19F
measurement label: MIC (µg/mL)
Reply numerically in µg/mL, unit not repeated.

Answer briefly: MIC recorded on S. pneumoniae strain Taiwan-19F (19F) for CO/N=C(\C(=O)N[C@@H]1C(=O)N2C(C(=O)[O-])=C(C[N+]3(C)CCCC3)CS[C@H]12)c1csc(N)n1 [Cefepime, cefepime]
2.2

Answer briefly: MIC recorded on S. pneumoniae strain Taiwan-19F (19F) for "C[C@H]1COc2c(N3CCN(C)CC3)c(F)cc3c(=O)c(C(=O)O)cn1c23"
1.1

Answer briefly: MIC recorded on S. pneumoniae strain Taiwan-19F (19F) for "CN[C@H](CC(C)C)C(=O)N[C@H]1C(=O)N[C@@H](CC(N)=O)C(=O)N[C@H]2C(=O)N[C@H]3C(=O)N[C@H](C(=O)N[C@H](C(=O)O)c4cc(O)cc(O)c4-c4cc3ccc4O)[C@H](O)c3ccc(c(Cl)c3)Oc3cc2cc(c3O[C@@H]2O[C@H](CO)[C@@H](O)[C@H](O)[C@H]2O[C@H]2C[C@](C)(N)[C@H](O)[C@H](C)O2)Oc2ccc(cc2Cl)[C@H]1O"
0.24

Answer briefly: MIC recorded on S. pneumoniae strain Taiwan-19F (19F) for "O=C(O)c1cn(C2CC2)c2cc(N3CCNCC3)c(F)cc2c1=O"
1

Recorded values, source patent US11591634B1.
